# Assay Notes: Inhibition of Saccharomyces cerevisiae alpha-glucosidase using p-nitrophenyl alpha-D-glucoside as substrate preincubated for 0.5 hrs followed by substrate addition measured after 1 hr by colorimetric method
Measured Endpoint: pIC50
// pIC50: -log10(molar conc.)

Worked set:
Given COc1c(O)cc2oc3cc4c(c(O)c3c(=O)c2c1C/C=C(\C)CCC=C(C)C)C=CC(C)(C)O4 , state its recorded pIC50. 4.73

For COc1c(O)cc2oc3cc4c(c(O)c3c(=O)c2c1CC=C(C)C)C=CC(C)(C)O4 , what is its reported pIC50? 4.46

New cases:
Query (compound): CC(C)=CCC/C(C)=C/CC1(C/C=C(\C)CCC=C(C)C)C(=O)C(O)=Cc2oc3cc(O)cc(O)c3c(=O)c21 (stereo not drawn) ; field requested: pIC50 4.44
